- protocol text: Inhibition of transfer of […] to biotin K-ras peptide (KKSKTKCVLL) catalyzed by bovine GGTase-I
pIC50: −log10 of the molar value.
observable: pIC50

As a guide, the following entries are already answered.
{"columns": ["compound", "pIC50"],
 "data": [
  ["CC(=O)N1CCN(c2nc(COC(c3ccc(C#N)cc3)c3cncn3C)c(-c3cccc(Cl)c3)cc2C#N)CC1 (stereo not given)", 5.68],
  ["Cn1cncc1C(OCc1ccc(C#N)cc1-c1cc(Cl)cc(Cl)c1)c1ccc(C#N)nc1 (stereo not given)", 6.02],
  ["Cn1cncc1[C@H](OCc1nc(Cl)c(C#N)cc1-c1cccc(Cl)c1)c1ccc(C#N)cc1", 5.55]
]}

P = COc1cccc(-c2cc(C#N)ccc2COC(c2ccc(C#N)cc2)c2cncn2C)c1 (stereo not given)
Q = Cn1cncc1C(OCc1nc(N2CCC(C(N)=O)CC2)c(C#N)cc1-c1cccc(Cl)c1)c1ccc(C#N)cc1 (stereo not given)
R = Cn1cncc1C(OCc1nc(N2CCC(O)CC2)c(C#N)cc1-c1cccc(Cl)c1)c1ccc(C#N)cc1 (stereo not given)
S = Cn1cncc1C(OCc1ccc(C#N)cc1-c1cccc(Cl)c1)c1ccc(C#N)nc1 (stereo not given)
Query: Given 4 compounds, produce a descending ranking by pIC50. State the ranking by listing the labels in the requested order.
Response: R, Q, P, S
(R: 6.08, Q: 5.68, P: 5.41, S: 5.06)

P = Cn1cncc1C(OCc1ccc(C#N)c(-c2ccc3ccccc3c2)n1)c1ccc(C#N)cc1 (stereo not given)
Q = Cn1cncc1C(OCc1ccc(C#N)nc1-c1ccc2ccccc2c1)c1ccc(C#N)cc1 (stereo not given)
R = Cn1cncc1C(OCc1nc(N2CCN(C(=O)OC(C)(C)C)CC2)c(C#N)cc1-c1cccc(Cl)c1)c1ccc(C#N)cc1 (stereo not given)
S = Cn1cncc1C(OCc1ccc(C#N)nc1-c1ccc(OC(F)(F)F)cc1)c1ccc(C#N)cc1 (stereo not given)
Query: Given 4 compounds, produce a descending ranking by pIC50. State the ranking by listing the labels in the requested order.
Response: R, S, P, Q

1 = Cn1cncc1C(OCc1nc(N2CCOCC2)c(C#N)cc1-c1cccc(Cl)c1)c1ccc(C#N)cc1 (stereo not given)
2 = Cn1cncc1C(OCc1ncc(C#N)cc1-c1cccc(Cl)c1)c1ccc(C#N)cc1 (stereo not given)
Query: Field: lower recorded pIC50 (choose 1 or 2 ) Please reply using the label of the selected record.
Response: 2

A = CN1CCN(c2nc(COC(c3ccc(C#N)cc3)c3cncn3C)c(-c3cccc(Cl)c3)cc2C#N)CC1 (stereo not given)
B = Cn1cncc1C(OCc1ccc(C#N)nc1-c1cc(Cl)cc(Cl)c1)c1ccc(C#N)cc1 (stereo not given)
Query: Field: lower recorded pIC50 (choose A or B ) Please reply using the label of the selected record.
Response: A

----------
- protocol text: Inhibition of transfer of […] to biotin K-ras peptide (KKSKTKCVLL) catalyzed by bovine GGTase-I
pIC50: −log10 of the molar value.
observable: pIC50

{"columns": ["compound", "pIC50"],
 "data": [
  ["Cn1cncc1C(OCc1ccc(C#N)nc1-c1ccc2c(c1)OC(F)(F)O2)c1ccc(C#N)cc1 (stereo not drawn)", 5.96],
  ["Cn1cncc1C(OCc1ccc(C#N)cc1-c1cccc(OC(F)(F)F)c1)c1ccc(C#N)nc1 (stereo not drawn)", 6.00],
  ["Cn1cncc1C(OCc1ccc(C#N)c(-c2cccc(Cl)c2)n1)c1ccc(C#N)cc1 (stereo not drawn)", 5.96]
]}

Origin of the recorded values: BindingDB's records for doi:10.1016/s0960-894x(03)00195-1
